Below, each entry is listed alongside its reported kon.
Biological target: T1, Human soluble IL-6R (human, UniProt P08887 20-358)
T1 construct: Soluble recombinant form; biotinylated in some assays; also called hIL-6R; human IL-6R
T1 sequence (looked up): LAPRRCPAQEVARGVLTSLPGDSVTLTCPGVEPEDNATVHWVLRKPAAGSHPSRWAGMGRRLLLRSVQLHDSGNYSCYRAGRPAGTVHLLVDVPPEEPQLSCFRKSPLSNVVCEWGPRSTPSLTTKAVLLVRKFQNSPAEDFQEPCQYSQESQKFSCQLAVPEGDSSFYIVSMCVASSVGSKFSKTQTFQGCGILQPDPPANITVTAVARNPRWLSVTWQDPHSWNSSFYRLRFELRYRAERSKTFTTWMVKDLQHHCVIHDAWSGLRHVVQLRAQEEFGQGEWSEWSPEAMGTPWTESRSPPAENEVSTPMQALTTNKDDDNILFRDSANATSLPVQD
Test: Biacore, binding to IL-6R
reported endpoint: kon (M⁻¹ s⁻¹)

binder: IL6R82 (VHH) VHH: EVQLVESGGGLVQPGGSLRLSCAASGFTFDDYGMSWVRQAPGKGLEWVSAISWNGNNTYYTESMKGRFTISRDNAKNTVYLQMNSLRPEDTAVYYCVKGSTAIVGVPPTYPDEYDYWGQGTLVTVSS
reported endpoint: kon
units: M⁻¹ s⁻¹
recorded number: 619000
//
binder: IL6R72 (VHH) VHH: EVQLVESGGGLVQPGGSLRLSCAASGFTFSDYDIGWFRQAPGKGREGVSGISSSDGNTYYADSVKGRFTISSDNAKNTVYLQMNSLRPEDTAVYYCAAEPPDSSWYLDGSPEFFKYWGQGTLVTVSS
reported endpoint: kon
units: M⁻¹ s⁻¹
recorded number: 543000
//
binder: IL6R74 (VHH) VHH: EVQLVESGGGLVQPGGSLRLSCAASGFTFDDYDIGWFRQAPGKGREGVSGISSSDGNTYYADSVKGRFTISSDNAKNTLYLQMNSLRPEDTAVYYCAAEPPDSSWYLDGSPEFFKYWGQGTLVTVSS
reported endpoint: kon
units: M⁻¹ s⁻¹
recorded number: 767000
//
binder: IL6R61 (VHH) VHH: EVQLVESGGGLVQPGGSLRLSCAASGSIFKVNAMGWYRQAPGKGRELVAGIISGGSTNYADSVKGRLTISRDNAKNTVYLQMNSLRPEDTAVYYCSFVTTNSDYDLGRDYWGQGTLVTVSS
reported endpoint: kon
units: M⁻¹ s⁻¹
recorded number: 850000
//
binder: IL6R81 (VHH) VHH: EVQLVESGGGLVQPGGSLRLSCAASGFTFDDYGMSWVRQAPGRATEWVSAISWNGNNTYYTESMKGRFTISRDNAKNTVYLQMNSLRPEDTAVYYCVKGSTAIVGVPPTYPDEYDYWGQGTLVTVSS
reported endpoint: kon
units: M⁻¹ s⁻¹
recorded number: 320000
//
binder: IL6R62 (VHH) VHH: EVQLVESGGGLVQPGGSLRLSCAASGSIFKVNAMGWYRQAPGKGRELVAGIISGGSTNYADSVKGRFTISRDNAKNTVYLQMNSLRPEDTAVYYCSFVTTNSDYDLGRDYWGQGTLVTVSS
reported endpoint: kon
units: M⁻¹ s⁻¹
recorded number: 929000
//
binder: IL6R63 (VHH) VHH: EVQLVESGGGLVQPGGSLRLSCAASGSIFKVNAMGWYRQAPGKGRELVAGIISGGSTNYADSVKGRLTISRDNAKNTLYLQMNSLRPEDTAVYYCSFVTTNSDYDLGRDYWGQGTLVTVSS
reported endpoint: kon
units: M⁻¹ s⁻¹
recorded number: 990000
//
binder: IL6R84 (VHH) VHH: EVQLVESGGGLVQPGGSLRLSCAASGFTFDDYGMSWVRQAPGKGLEWVSAISWNGNNTYYTESMKGRFTISRDNAKNTLYLQMNSLRPEDTAVYYCVKGSTAIVGVPPTYPDEYDYWGQGTLVTVSS
reported endpoint: kon
units: M⁻¹ s⁻¹
recorded number: 762000
